The origin of these recorded values is the supplement of paper PMC9112550.

# System: Escherichia coli TOP10;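 also: peptides expressed intracellularly from a pBAD plasmid library in pooled LB shake-flask culture, induced with 0.3% L-arabinose, DNA abundance read by NGS, three biological replicates, DESeq2 with apeglm shrinkage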
# measurement notes: shrunken log2 fold change of peptide-encoding DNA abundance (4.5 h post-induction vs induction); higher = less antimicrobial activity (less host growth inhibition)
# measurement context: time post-induction: 4.5 h; library: site-saturation at positions 5, 18, 19, 20
# label = bin(measured shrunken log2 fold change), where bins are group A: < -0.2; group B: ≥ -0.2 and < 0.03; group C: ≥ 0.03

Take a look at these entries with their results.
{"columns": ["sequence", "assigned class"],
 "data": [
  ["RRIRQRPPRLPRPRPRPEQFPRP", "group C"],
  ["RRIRTRPPRLPRPRPRPEVLPRP", "group B"],
  ["RRIRPRPPRLPRPRPRPMFSPRP", "group A"],
  ["RRIRYRPPRLPRPRPRPQVPPRP", "group B"],
  ["RRIRYRPPRLPRPRPRPRTGPRP", "group B"],
  ["RRIRKRPPRLPRPRPRPSEHPRP", "group B"]
]}

Quick check: band for RRIRNRPPRLPRPRPRPMYVPRP
group C

Just checking, what class would you give RRIRWRPPRLPRPRPRPERKPRP here?
group B
